Tested on: 565232-114-T-J1-PDC complex spheroid viability;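 also: spheroids exposed to compounds for 7 days before readout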
Test: Anticancer human tumor 565232-114-T-J1-PDC patient-derived bladder carcinoma cell line growth inhibition [CLK]
Conditions: second compound 10 µM; first compound 3.16 µM; active compounds read low
Note that class boundaries on viability, T/C are band A (below 2%), band B (2% to below 10%), band C (10% or more)

compound="COc1cccc2c1C(=O)c1c(O)c3c(c(O)c1C2=O)CC(O)(C(=O)CO)CC3OC1CC(N)C(O)C(C)O1 (stereo not given) + CNC(=O)c1ccc(Nc2nc(OC3CCCC3)c3c(-c4ccc5nc(C)oc5c4)c[nH]c3n2)c(OC)c1" target_entity="565232-114-T-J1-PDC complex spheroid viability" discrete_label="band A"
compound="COC1C=CCC(C)C(C)S(=O)(=O)NC(=O)c2ccc3c(c2)N(CC2CCC21)CC1(CCCc2cc(Cl)ccc21)CO3 (stereo not given) + CNC(=O)c1ccc(Nc2nc(OC3CCCC3)c3c(-c4ccc5nc(C)oc5c4)c[nH]c3n2)c(OC)c1" target_entity="565232-114-T-J1-PDC complex spheroid viability" discrete_label="band B"
compound="CCCS(=O)(=O)Nc1ccc(F)c(C(=O)c2c[nH]c3ncc(-c4ccc(Cl)cc4)cc23)c1F + CNC(=O)c1ccc(Nc2nc(OC3CCCC3)c3c(-c4ccc5nc(C)oc5c4)c[nH]c3n2)c(OC)c1" target_entity="565232-114-T-J1-PDC complex spheroid viability" discrete_label="band C"
compound="Nc1ccccc1NC(=O)c1ccc(CNC(=O)OCc2cccnc2)cc1 + CN1CCN(c2cc(C(=O)Nc3cc4cc(-c5cnn(C)c5)ccc4cn3)ccn2)CC1" target_entity="565232-114-T-J1-PDC complex spheroid viability" discrete_label="band A"
compound="O=C(c1cc(Cc2n[nH]c(=O)c3ccccc23)ccc1F)N1CCN(C(=O)C2CC2)CC1 + CN1CCN(c2cc(C(=O)Nc3cc4cc(-c5cnn(C)c5)ccc4cn3)ccn2)CC1" target_entity="565232-114-T-J1-PDC complex spheroid viability" discrete_label="band A"
compound="CC1(C)CCC(CN2CCN(c3ccc(C(=O)NS(=O)(=O)c4ccc(NCC5CCOCC5)c([N+](=O)[O-])c4)c(Oc4cnc5[nH]ccc5c4)c3)CC2)=C(c2ccc(Cl)cc2)C1 + CNC(=O)c1ccc(Nc2nc(OC3CCCC3)c3c(-c4ccc5nc(C)oc5c4)c[nH]c3n2)c(OC)c1" target_entity="565232-114-T-J1-PDC complex spheroid viability" discrete_label="band C"
compound="C=C(F)C(=O)N1CCN(c2nc(OCC3CCCN3C)nc3c2CCN(c2cccc4cccc(Cl)c24)C3)CC1CC#N (stereo not given) + CNC(=O)c1ccc(Nc2nc(OC3CCCC3)c3c(-c4ccc5nc(C)oc5c4)c[nH]c3n2)c(OC)c1" target_entity="565232-114-T-J1-PDC complex spheroid viability" discrete_label="band C"
compound="CC(Nc1ccc2c(c1)OCCn1cc(N3C(=O)OCC3C(F)F)nc1-2)C(N)=O (stereo not given) + CNC(=O)c1ccc(Nc2nc(OC3CCCC3)c3c(-c4ccc5nc(C)oc5c4)c[nH]c3n2)c(OC)c1" target_entity="565232-114-T-J1-PDC complex spheroid viability" discrete_label="band B"
compound="COc1ccc([C@@H](O)c2cc(-c3ncnc4cc(N5CCOCC5)ccc34)c(F)cc2Cl)nn1 + CNC(=O)c1ccc(Nc2nc(OC3CCCC3)c3c(-c4ccc5nc(C)oc5c4)c[nH]c3n2)c(OC)c1" target_entity="565232-114-T-J1-PDC complex spheroid viability" discrete_label="band C"
compound="O=c1[nH]cc(F)c(=O)[nH]1 + CN1CCN(c2cc(C(=O)Nc3cc4cc(-c5cnn(C)c5)ccc4cn3)ccn2)CC1" target_entity="565232-114-T-J1-PDC complex spheroid viability" discrete_label="band A"
